System: Actinomyces viscosus
protocolText: Plaque bactericidal index against Actinomyces viscosus M-100 measured as chlorohexidine coefficient
Format: functional
Each entry gets rule not met if its PBI stays under 6, and rule met if its PBI is 6 or above.

Check this compound for PBI at or above 6: Br.CCCCCCCCn1ccc(=NCC(CC)CCCC)cc1 (stereo not given)
rule met

Check this compound for PBI at or above 6: `Br.CCCCCCCCN=c1ccn(CCCCCCC)cc1`
rule met

Check this compound for PBI at or above 6: `CCCCCCCCCN=c1ccn(CCCCCC)cc1.Cl`
rule not met

Check this compound for PBI at or above 6: `CCCCCCCCN=c1ccn(Cc2ccc(Cl)cc2)cc1.Cl`
rule not met

Check this compound for PBI at or above 6: `Br.CCCCCCCN=c1ccn(CCCCCCC)cc1`
rule not met

Check this compound for PBI at or above 6: `N=C(NCCCCCCNC(=N)NC(=N)Nc1ccc(Cl)cc1)NC(=N)Nc1ccc(Cl)cc1`
rule met

Check this compound for PBI at or above 6: `CCCCCCCCCCCCN=c1ccn(Cc2ccccc2)cc1.Cl`
rule met

Check this compound for PBI at or above 6: `CCCCCCCCN=c1ccn(Cc2ccccc2)cc1.Cl`
rule met

Check this compound for PBI at or above 6: `CCCCCCCCCn1ccc(=NCCCCCC)cc1.Cl`
rule met

Check this compound for PBI at or above 6: `CCCCCCCN=c1ccn(CCCCCC)cc1.Cl`
rule met

Check this compound for PBI at or above 6: `CCCCCCCCCn1ccc(=NCCCCCCCC)cc1.Cl`
rule met

Check this compound for PBI at or above 6: `Br.CCCCCCCCCN=c1ccn(CCCCCCCC)cc1`
rule met

Check this compound for PBI at or above 6: `CCCCCCCCCn1ccc(=NCCCCCCC)cc1.Cl`
rule met

Check this compound for PBI at or above 6: `Br.CCCCCCCCN=c1ccn(CCCCCC)cc1`
rule met

Check this compound for PBI at or above 6: `CCCCCCCCCN=c1ccn(CCCCCCCCC)cc1.Cl`
rule not met

Check this compound for PBI at or above 6: `CCCCCCCCn1ccc(=NCCCCCC)cc1.Cl`
rule not met

Check this compound for PBI at or above 6: `CCCCCCCCN=c1ccn(CCCCCCCCCCn2ccc(=NCCCCCCCC)cc2)cc1`
rule met

Check this compound for PBI at or above 6: `Br.CCCCCCCCCN=c1ccn(CCCCCCC)cc1`
rule met

Check this compound for PBI at or above 6: Br.CCCCCCCCN=c1ccn(CC(CC)CCCC)cc1 (stereo not given)
rule met

Check this compound for PBI at or above 6: `CCCCCCCn1ccc(=NCCCCCC)cc1.Cl`
rule met

Check this compound for PBI at or above 6: Br.CCCCC(CC)CN=c1ccn(CC(CC)CCCC)cc1 (stereo not given)
rule met

Check this compound for PBI at or above 6: `Br.CCCCCCCCn1ccc(=NCCCCCCC)cc1`
rule met

Check this compound for PBI at or above 6: CCCCCCCCN=c1ccn(CCCCCCCC)cc1.Cl [PIRTENIDINE HYDROCHLORIDE]
rule not met

Check this compound for PBI at or above 6: `CCCCCCCCCCCCN=c1ccn(C)cc1.I`
rule met

###

Test system: Streptococcus sobrinus
protocolText: Chlorohexidine coefficient for Streptococcus sobrinus 6715-13
Assay type: functional
So basically: is CC under 2? Then Y. Not under? Then N.

# strict comparison: is reported CC < 2? input = CCCCCCCCN=c1ccn(CCCCCCCC)cc1.Cl [PIRTENIDINE HYDROCHLORIDE]
N

# strict comparison: is reported CC < 2? input = `Br.CCCCCCCCN=c1ccn(CCCCCC)cc1`
N

# strict comparison: is reported CC < 2? input = `CCCCCCCCCCCCN=c1ccn(Cc2ccccc2)cc1.Cl`
Y

# strict comparison: is reported CC < 2? input = `CCCCCCCCCN=c1ccn(CCCCCCCCC)cc1.Cl`
N

# strict comparison: is reported CC < 2? input = CCCCCCCCN=c1ccn(CCCCCCCCCCn2ccc(=NCCCCCCCC)cc2)cc1 [OCTENIDINE]
Y

# strict comparison: is reported CC < 2? input = `Br.CCCCCCCCn1ccc(=NCCCCCCC)cc1`
N

# strict comparison: is reported CC < 2? input = `Br.CCCCCCCN=c1ccn(CCCCCCC)cc1`
N

# strict comparison: is reported CC < 2? input = `CCCCCCCCCN=c1ccn(CCCCCC)cc1.Cl`
N

# strict comparison: is reported CC < 2? input = Br.CCCCC(CC)CN=c1ccn(CC(CC)CCCC)cc1 (configuration not stated)
Y

# strict comparison: is reported CC < 2? input = `Br.CCCCCCCCCN=c1ccn(CCCCCCC)cc1`
N

# strict comparison: is reported CC < 2? input = `CCCCCCCCCCCCN=c1ccn(C)cc1.I`
N

###

System: Streptococcus sobrinus
protocolText: Chlorohexidine coefficient for Streptococcus sobrinus 6715-13
Format: functional
What CC was measured for each of the following?

Which CC value is on record for `CCCCCCCCn1ccc(=NCCCCCC)cc1.Cl` ?
5.6

Which CC value is on record for `CCCCCCCCCn1ccc(=NCCCCCC)cc1.Cl` ?
8.8

Which CC value is on record for `CCCCCCCCCn1ccc(=NCCCCCCCC)cc1.Cl` ?
1.9

Which CC value is on record for `CCCCCCCCCCN=c1ccn(CCCCC)cc1.Cl` ?
8.5

Which CC value is on record for `CCCCCCCCN=c1ccn(Cc2ccccc2)cc1.Cl` ?
1.1

Which CC value is on record for `CCCCCCCn1ccc(=NCCCCCC)cc1.Cl` ?
2

Which CC value is on record for `Br.CCCCCCCCCN=c1ccn(CCCCCCCC)cc1` ?
2.6

Which CC value is on record for Br.CCCCCCCCn1ccc(=NCC(CC)CCCC)cc1 (configuration not stated) ?
2.5

Which CC value is on record for `CCCCCCCCCn1ccc(=NCCCCCCC)cc1.Cl` ?
3

Which CC value is on record for `Br.CCCCCCCCN=c1ccn(CCCCCCC)cc1` ?
3.3

Which CC value is on record for `CCCCCCCCN=c1ccn(Cc2ccc(Cl)cc2)cc1.Cl` ?
2.3

Which CC value is on record for Br.CCCCCCCCN=c1ccn(CC(CC)CCCC)cc1 (configuration not stated) ?
2

###

System: Streptococcus sobrinus
protocolText: Minimal bactericidal concentration against Streptococcus sobrinus 6715-13
Format: functional
property: MBC (µM)
Numeric only. Scale: µM

Which MBC value is on record for `CCCCCCCCCn1ccc(=NCCCCCCCC)cc1.Cl` ?
1350

Which MBC value is on record for `Br.CCCCCCCCN=c1ccn(CCCCCCC)cc1` ?
1300

Which MBC value is on record for `CCCCCCCCCCCCCCN=c1ccn(Cc2ccccc2)cc1` ?
240

Which MBC value is on record for `Br.CCCCCCCCN=c1ccn(CCCCCC)cc1` ?
1350

Which MBC value is on record for `CCCCCCCCCCCCN=c1ccn(Cc2ccccc2)cc1.Cl` ?
1290

Which MBC value is on record for `CCCCCCCCCCCCN=c1ccn(C)cc1.I` ?
1240

Which MBC value is on record for `CCCCCCCCCCN=c1ccn(CCCCC)cc1.Cl` ?
290

Which MBC value is on record for `CCCCCCN=c1ccn(CCCCCC)cc1` ?
1580

Which MBC value is on record for `CCCCCCCCN=c1ccn(Cc2ccccc2)cc1.Cl` ?
1500

Which MBC value is on record for `Br.CCCCCCCCn1ccc(=NCCCCCCC)cc1` ?
1300

Which MBC value is on record for `CCCCCCCCCN=c1ccn(CCCCCC)cc1.Cl` ?
290

Which MBC value is on record for `Br.CCCCCCCCCN=c1ccn(CCCCCCC)cc1` ?
1250

Which MBC value is on record for `Br.CCCCCCCN=c1ccn(CCCCCCC)cc1` ?
1350

Which MBC value is on record for `CCCCCCCCN=c1ccn(CCCCCCCCCCn2ccc(=NCCCCCCCC)cc2)cc1` ?
3200

Which MBC value is on record for CCCCCCCCN=c1ccn(CCCCCCCC)cc1.Cl [PIRTENIDINE HYDROCHLORIDE] ?
280

Which MBC value is on record for `CCCCCCCCCn1ccc(=NCCCCCCC)cc1.Cl` ?
1410

Which MBC value is on record for Br.CCCCCCCCN=c1ccn(CC(CC)CCCC)cc1 (stereo unspecified) ?
1250

Which MBC value is on record for `CCCCCCCCN=c1ccn(Cc2ccc(Cl)cc2)cc1.Cl` ?
270

Which MBC value is on record for `CCCCCCCN=c1ccn(CCCCCC)cc1.Cl` ?
1600

Which MBC value is on record for `Br.CCCCCCCCCN=c1ccn(CCCCCCCC)cc1` ?
1210

Which MBC value is on record for `CCCCCCCCn1ccc(=NCCCCCC)cc1.Cl` ?
310

Which MBC value is on record for `CCCCCCCCCN=c1ccn(CCCCCCCCC)cc1.Cl` ?
2610

Which MBC value is on record for `CCCCCCCCCn1ccc(=NCCCCCC)cc1.Cl` ?
290

Which MBC value is on record for Br.CCCCCCCCn1ccc(=NCC(CC)CCCC)cc1 (stereo unspecified) ?
1250

Which MBC value is on record for Br.CCCCC(CC)CN=c1ccn(CC(CC)CCCC)cc1 (stereo unspecified) ?
1250

Which MBC value is on record for `N=C(NCCCCCCNC(=N)NC(=N)Nc1ccc(Cl)cc1)NC(=N)Nc1ccc(Cl)cc1` ?
3200
